EXPERIMENTAL TARGET: Histone deacetylase 4 (Homo sapiens, UniProt P56524)
Sequence (P56524 whole entry): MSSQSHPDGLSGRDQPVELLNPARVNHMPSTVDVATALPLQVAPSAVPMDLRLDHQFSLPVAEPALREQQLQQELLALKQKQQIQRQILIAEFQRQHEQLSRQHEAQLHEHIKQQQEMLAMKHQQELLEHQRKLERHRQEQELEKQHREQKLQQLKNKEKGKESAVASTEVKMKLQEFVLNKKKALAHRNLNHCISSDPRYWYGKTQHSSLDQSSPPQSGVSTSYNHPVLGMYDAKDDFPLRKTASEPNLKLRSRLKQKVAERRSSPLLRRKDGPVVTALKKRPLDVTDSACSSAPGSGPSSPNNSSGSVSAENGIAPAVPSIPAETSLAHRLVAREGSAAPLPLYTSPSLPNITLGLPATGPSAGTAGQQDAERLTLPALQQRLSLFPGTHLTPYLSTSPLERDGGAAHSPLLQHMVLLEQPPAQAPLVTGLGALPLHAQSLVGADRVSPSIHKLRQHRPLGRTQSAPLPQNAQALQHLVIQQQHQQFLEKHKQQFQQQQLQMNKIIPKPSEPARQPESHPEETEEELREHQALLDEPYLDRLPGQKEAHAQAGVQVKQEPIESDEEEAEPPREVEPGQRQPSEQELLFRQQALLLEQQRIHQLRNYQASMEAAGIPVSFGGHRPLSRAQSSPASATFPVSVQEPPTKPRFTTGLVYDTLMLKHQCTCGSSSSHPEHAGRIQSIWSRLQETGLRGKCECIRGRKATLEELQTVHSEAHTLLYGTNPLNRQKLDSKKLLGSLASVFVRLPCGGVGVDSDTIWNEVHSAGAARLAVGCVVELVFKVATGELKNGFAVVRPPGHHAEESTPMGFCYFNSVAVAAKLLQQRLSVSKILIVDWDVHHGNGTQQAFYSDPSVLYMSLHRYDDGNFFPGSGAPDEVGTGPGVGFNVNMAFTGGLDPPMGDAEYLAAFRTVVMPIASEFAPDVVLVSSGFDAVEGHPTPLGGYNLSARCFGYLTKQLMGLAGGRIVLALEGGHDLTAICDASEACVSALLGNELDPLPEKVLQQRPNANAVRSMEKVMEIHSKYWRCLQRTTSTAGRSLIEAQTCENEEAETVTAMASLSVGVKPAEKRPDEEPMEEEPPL
EXPERIMENT NOTES: Inhibition Assay: 2 μl (200×) of each diluted solution and each control (full activity: 100% DMSO alone or full inhibition 1 mM) is stamped into V-bottomed polypropylene 384-well compound plates using either the Bravo (384-well head from Agilent) or 12.5 μl 16-channel Matrix multi-channel pipette (Matrix Technologies Ltd).
pIC50: −log10 of the molar value.
MEASURE: pIC50

{"columns": ["SMILES STR", "VALUE REPORTED"],
 "data": [
  ["Cc1c(F)cccc1[C@@]1(C(=O)NO)C=C(c2cnccn2)CC1", 5.62]
]}
